- Target Desc: papain (Carica papaya, UniProt P00784)
- Construct: purchased
- Sequence (P00784 134-345): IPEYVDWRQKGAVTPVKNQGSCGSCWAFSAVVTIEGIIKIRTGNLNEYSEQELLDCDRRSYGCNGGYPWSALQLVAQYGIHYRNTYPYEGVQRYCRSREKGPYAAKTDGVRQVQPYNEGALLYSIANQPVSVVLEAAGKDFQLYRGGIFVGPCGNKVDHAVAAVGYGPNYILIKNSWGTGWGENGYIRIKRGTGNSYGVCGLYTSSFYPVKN
- Assay Method Text: Papain inhibition, fluorometric Z-Phe-Arg-MCA assay
- Format: biochemical
- Condition Description: papain
- Method: Compounds 1, 2, 4, and 7–11 were tested against papain inhibitory activity. Papain served as the model cysteine protease in the protease inhibition assay. Enzyme activity was assessed via real‐time fluorometric monitoring of 7‐amino‐4‐methylcoumarin (MCA) release during substrate cleavage. Hydrolysis of the fluorogenic substrate Z‐Phe‐Arg‐MCA (ZFR‐MCA) was tracked in black 96‐well plates using a spectrofluorometer (λex/λem = 380/460 nm) (SpectraMax M3, Molecular Devices). […]
Result Type: IC50 (µM)
Give bare numbers, in µM.

// query Query the reported IC50 for papain (Carica papaya, UniProt P00784); item: CCCCc1ccc(C(=O)[O][Mg][O]C(=O)c2ccc(CCCC)cn2)nc1 [Compound 2, magnesium complex of fusaric acid]
// result 17.5
